Molecular target: T1, Clostridium difficile toxin A (TcdA) (Clostridium difficile strain 10463, UniProt P16154 1-2710)
T1 construct: range 1-2710
T1 sequence (P16154 whole entry): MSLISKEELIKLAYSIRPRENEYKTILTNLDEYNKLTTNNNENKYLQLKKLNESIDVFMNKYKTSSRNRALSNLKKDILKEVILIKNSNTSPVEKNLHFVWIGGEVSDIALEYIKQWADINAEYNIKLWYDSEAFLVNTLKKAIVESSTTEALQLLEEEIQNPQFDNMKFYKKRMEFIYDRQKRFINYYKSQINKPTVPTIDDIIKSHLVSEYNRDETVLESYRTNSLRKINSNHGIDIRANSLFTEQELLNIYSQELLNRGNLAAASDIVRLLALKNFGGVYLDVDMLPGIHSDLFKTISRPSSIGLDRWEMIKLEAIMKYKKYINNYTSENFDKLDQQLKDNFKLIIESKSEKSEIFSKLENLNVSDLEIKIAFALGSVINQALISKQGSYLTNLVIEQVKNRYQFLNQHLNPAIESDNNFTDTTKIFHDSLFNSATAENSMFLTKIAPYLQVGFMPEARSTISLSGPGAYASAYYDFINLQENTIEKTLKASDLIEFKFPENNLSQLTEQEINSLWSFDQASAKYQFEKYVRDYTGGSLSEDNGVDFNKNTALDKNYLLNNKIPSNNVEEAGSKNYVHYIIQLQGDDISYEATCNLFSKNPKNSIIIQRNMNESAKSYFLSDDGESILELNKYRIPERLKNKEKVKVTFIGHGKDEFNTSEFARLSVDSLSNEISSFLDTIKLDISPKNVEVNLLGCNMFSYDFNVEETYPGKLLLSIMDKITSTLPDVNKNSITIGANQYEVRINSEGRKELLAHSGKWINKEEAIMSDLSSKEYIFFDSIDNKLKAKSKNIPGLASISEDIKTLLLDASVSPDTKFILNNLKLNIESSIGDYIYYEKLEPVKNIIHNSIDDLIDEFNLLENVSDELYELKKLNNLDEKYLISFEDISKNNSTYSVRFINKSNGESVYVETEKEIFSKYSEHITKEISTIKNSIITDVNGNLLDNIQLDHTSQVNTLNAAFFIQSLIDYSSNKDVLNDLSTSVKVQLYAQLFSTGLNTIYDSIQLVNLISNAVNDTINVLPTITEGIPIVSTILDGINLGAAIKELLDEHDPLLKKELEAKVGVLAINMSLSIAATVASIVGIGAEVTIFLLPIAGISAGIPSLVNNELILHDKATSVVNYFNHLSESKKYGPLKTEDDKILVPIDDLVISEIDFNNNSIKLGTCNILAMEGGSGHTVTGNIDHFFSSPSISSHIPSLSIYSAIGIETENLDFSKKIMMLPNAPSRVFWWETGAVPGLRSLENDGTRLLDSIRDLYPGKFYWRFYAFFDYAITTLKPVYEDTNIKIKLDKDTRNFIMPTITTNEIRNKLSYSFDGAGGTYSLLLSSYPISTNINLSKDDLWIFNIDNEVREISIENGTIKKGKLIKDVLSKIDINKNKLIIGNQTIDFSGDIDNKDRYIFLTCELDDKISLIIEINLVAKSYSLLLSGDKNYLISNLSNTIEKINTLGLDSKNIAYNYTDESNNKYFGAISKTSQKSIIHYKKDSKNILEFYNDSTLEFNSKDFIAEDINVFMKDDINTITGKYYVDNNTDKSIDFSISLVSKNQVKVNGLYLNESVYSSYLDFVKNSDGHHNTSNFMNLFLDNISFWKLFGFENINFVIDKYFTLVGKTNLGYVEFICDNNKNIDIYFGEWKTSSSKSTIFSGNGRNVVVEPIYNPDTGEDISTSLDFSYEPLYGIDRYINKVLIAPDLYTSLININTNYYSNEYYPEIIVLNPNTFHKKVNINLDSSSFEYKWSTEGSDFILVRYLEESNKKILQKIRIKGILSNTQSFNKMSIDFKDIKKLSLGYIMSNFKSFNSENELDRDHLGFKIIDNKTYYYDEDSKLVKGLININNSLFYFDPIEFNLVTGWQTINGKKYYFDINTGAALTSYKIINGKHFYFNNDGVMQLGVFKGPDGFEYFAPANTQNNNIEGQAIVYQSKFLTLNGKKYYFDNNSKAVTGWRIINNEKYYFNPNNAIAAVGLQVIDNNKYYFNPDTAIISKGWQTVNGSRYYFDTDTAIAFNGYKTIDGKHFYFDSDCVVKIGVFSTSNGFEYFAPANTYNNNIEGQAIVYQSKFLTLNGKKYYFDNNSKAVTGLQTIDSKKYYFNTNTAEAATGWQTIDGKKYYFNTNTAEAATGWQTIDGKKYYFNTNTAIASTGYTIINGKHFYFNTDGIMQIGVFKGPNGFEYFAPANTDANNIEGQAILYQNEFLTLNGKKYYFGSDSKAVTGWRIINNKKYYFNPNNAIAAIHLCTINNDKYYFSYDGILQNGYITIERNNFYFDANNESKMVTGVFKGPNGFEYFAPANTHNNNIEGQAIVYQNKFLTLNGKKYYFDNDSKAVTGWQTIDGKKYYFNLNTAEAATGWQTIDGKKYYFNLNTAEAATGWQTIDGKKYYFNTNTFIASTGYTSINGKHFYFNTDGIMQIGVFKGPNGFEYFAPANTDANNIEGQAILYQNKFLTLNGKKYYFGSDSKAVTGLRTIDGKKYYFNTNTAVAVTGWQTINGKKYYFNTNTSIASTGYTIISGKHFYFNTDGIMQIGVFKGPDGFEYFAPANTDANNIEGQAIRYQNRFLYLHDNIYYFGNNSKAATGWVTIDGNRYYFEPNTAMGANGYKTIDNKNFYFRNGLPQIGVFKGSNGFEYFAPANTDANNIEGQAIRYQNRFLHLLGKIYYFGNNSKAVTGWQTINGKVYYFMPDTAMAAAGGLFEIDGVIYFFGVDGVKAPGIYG
Experiment: SPR (BIACORE 3000); TcdA immobilized on CM5 chip, monomeric VHH injected
Reported values of koff for individual entries
endpoint-label: koff

[[record]]
binder = "A5.1 (VHH, also called anti-TcdA VHH A5.1) VHH: QVKLEESGGGLVQAGGSLRLSCAASGRTFSMYRMGWFRQAPGKEREFVGVITRNGSSTYYADSVKGRFTISRDNAKNTVYLQMNSLKPEDTALYYCAATSGSSYLDAAHVYDYWGQGTQVTVSS"
result = "0.005 s⁻¹"

[[record]]
binder = "A4.2 (VHH, also called anti-TcdA VHH A4.2) VHH: QVKLEESGGGLVQAGGSLRLSCAASGRTFNTLSMGWFRQAPGKEREFVAAVSRSGGSTYYADSVKGRFTISRDNAKNTVYLQMNSLKPEDTAVYYCAAAATKSNTTAYRLSFDYWGQGTQVTVSS"
result = "0.016 s⁻¹"

[[record]]
binder = "A19.2 (VHH, also called anti-TcdA VHH A19.2) VHH: QVKLEESGGGLVQPGGSLRLSCAASGRTLSSYIVAWFRQAPGKEREFVAGISRRGGNSAYVESVKGRFTISRDNAKNTVYLQMNSLKPEDTAVYYCAADGSVAGWGRRSVSVSSYDYWGQGTQVTVSS"
result = "0.0039 s⁻¹"

[[record]]
binder = "A20.1 (VHH, also called anti-TcdA VHH A20.1) VHH: QVQLVESGGGLAQAGGSLRLSCAASGRTFSMDPMAWFRQPPGKEREFVAAGSSTGRTTYYADSVKGRFTISRDNAKNTVYLQMNSLKPEDTAVYYCAAAPYGANWYRDEYAYWGQGTQVTVSS"
result = "0.0016 s⁻¹"

[[record]]
binder = "A24.1 (VHH, also called anti-TcdA VHH A24.1) VHH: QVQLVESGGGLVQAGGSLRLSCAASIRSFSNRNMGWFRQPPGKEREFVAGISWGGGSTRYADSVKGRFTISRDNAKKTVYLQMNSLKPEDTAVYYCAAEFGHNIATSSDEYDYWGQGTQVTVSS"
result = "0.016 s⁻¹"

